Target or system: human PHD2 (Homo sapiens (Human))
Sequence (Q9GZT9 whole entry): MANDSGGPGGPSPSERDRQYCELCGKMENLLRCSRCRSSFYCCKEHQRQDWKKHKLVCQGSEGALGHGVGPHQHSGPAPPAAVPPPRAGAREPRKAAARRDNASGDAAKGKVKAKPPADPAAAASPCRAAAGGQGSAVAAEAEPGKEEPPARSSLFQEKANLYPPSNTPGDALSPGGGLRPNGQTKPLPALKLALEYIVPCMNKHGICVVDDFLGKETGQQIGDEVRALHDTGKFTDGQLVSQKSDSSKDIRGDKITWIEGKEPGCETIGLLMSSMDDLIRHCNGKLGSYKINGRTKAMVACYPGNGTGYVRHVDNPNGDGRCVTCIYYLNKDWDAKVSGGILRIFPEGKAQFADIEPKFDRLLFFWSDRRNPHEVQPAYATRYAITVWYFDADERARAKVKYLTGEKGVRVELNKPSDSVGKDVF
Experiment summary: Test 1: human PHD2 inhibitory activity, [14C]-2-oxoglutarate to [14C]-succinic acid radiometric assay with HIF-1α peptide
Format: biochemical
Condition details: test compound's concentration 1 μM; Test 1, [14C]-2-oxoglutarate radiometric assay; read-out: Percent inhibition (% at 1 μM)
Property: inhibition at 1 µM (%)

1) N#Cc1ccc(-c2ccc(CN3CCC(O)=C(C(=O)NCC(=O)O)C3=O)cc2)cc1	98

[1] O=C(O)CNC(=O)C1=C(O)CCN(Cc2c(F)cc(C(F)(F)F)cc2F)C1=O
[2] CC1(C)CC(O)=C(C(=O)NCC(=O)O)C(=O)N1Cc1ccc(Cl)c(OC(F)(F)F)c1
Prompt line: Lab note: record which item had the higher inhibition at 1 µM, 1 or 2 . Write the label of whichever entry you select.
Response line: 1
(1: 78%, 2: 42%)

[I] O=C(O)CNC(=O)C1=C(O)CC2(CC2)N(Cc2ccc(-c3ccccc3)cc2)C1=O
[II] O=C(O)CNC(=O)C1=C(O)C2(CCCCC2)CN(Cc2ccc3ccccc3c2)C1=O
[III] COc1ccc(CN2C(=O)C(C(=O)NCC(=O)O)=C(O)CC2(C)C)cc1OC(F)(F)F
Prompt line: Order field: inhibition at 1 µM | Direction: descending (largest first) Please, when replying, give the labels in the order that was requested.
Response line: I, II, III
(I: 90%, II: 54%, III: 28%)

[I] O=C(O)CNC(=O)C1=C(O)CCN(Cc2ccc(OCc3ccc(F)cc3)cc2)C1=O
[II] CC1(C)CC(O)=C(C(=O)NCC(=O)O)C(=O)N1Cc1ccc(OC(F)(F)F)c(Cl)c1
Prompt line: Lab note: record which item had the higher inhibition at 1 µM, I or II . Write the label of whichever entry you select.
Response line: I
(I: 97%, II: 49%)

[1] CCC1(CC)CC(O)=C(C(=O)NCC(=O)O)C(=O)N1Cc1ccc(C(F)(F)F)cc1
[2] CC(C)(C)COCc1ccc(CN2CCC(O)=C(C(=O)NCC(=O)O)C2=O)cc1
[3] CC1(C)CC(O)=C(C(=O)NCC(=O)O)C(=O)N1Cc1ccc(C(F)(F)F)cc1
Prompt line: Your job: order these 3 records by inhibition at 1 µM, ascending. Please, when replying, give the labels in the order that was requested.
Response line: 1, 3, 2
